Where do the numbers come from? From patent US20120270914A1.

System: c-Myc
Assay: Western blot analysis of endogenous phospho c-Myc in SKBR3 cells
Format: cell-based, human
Conditions: read-out: IC50, inhibition of phospho c-Myc level
Protocol: FIGS. 26A and 26B illustrate the inhibition of endogenous c-Myc. FIG. 26A: Western blot analysis of SKBR3 cells after NTZ treatment was performed using phospho c-Myc, c-Myc protein, and β-actin antibodies. […] Western Blot Analysis: Total cell lysates were collected using 1× cell lysis buffer (Cell Signaling), as directed by the manufacturer. The protein concentration was determined using the BioRad DC protein assay. […]
recorded endpoint: IC50 (nM)
Numbers only, in nM.

// query IC50 value for entry CC(=O)Oc1ccccc1C(=O)Nc1ncc([N+](=O)[O-])s1 [NTZ, nitazoxanide]
122
